Where do these numbers come from? They come from paper PMC10461229.

- ASSAY PROTOCOL: in vitro
- RECORDED CONDITIONS: human, Caco-2, pH 7.4
READOUT: Papp A→B (×10⁻⁶ cm/s)

INSERT INTO measurements (molecule, readout, experimental_result) VALUES
  ('CC(C)(C)c1ccc(-c2nnc(SCc3cc(=O)n4c(c3C3CC3)SCC4C(=O)O)o2)cc1 (racemic) [Compound 8f]', 'Papp A→B', 3.3);
